Assay: Area under curve determined in dogs after intravenous administration of 3 mg/kg
Assay type: ADME, organism-based, Canis lupus familiaris
Design: dose 3 mg/kg, route intravenous
Conditions: dog, in vivo
readout label: AUC

Which AUC is listed for `O=S(=O)(Nc1ccc(CCNC[C@H](O)c2cccnc2)cc1)c1ccc(-c2nc(-c3ccc(OC(F)(F)F)cc3)cs2)cc1` ? 3530 ng·h/mL

Which AUC is listed for `O=S(=O)(Nc1ccc(CCNC[C@H](O)c2cccnc2)cc1)c1ccc(-c2nc(-c3ccc(C(F)(F)F)cc3)cs2)cc1` ? 1930 ng·h/mL

Which AUC is listed for `O=S(=O)(Nc1ccc(CCNC[C@H](O)c2cccnc2)cc1)c1ccc(-c2nc(-c3ccc(F)c(F)c3)cs2)cc1` ? 1720 ng·h/mL

Now for another entry.
Which AUC is listed for `O=S(=O)(Nc1ccc(CCNC[C@H](O)c2cccnc2)cc1)c1ccc(-c2nc(-c3cc(F)c(F)c(F)c3)cs2)cc1` ? 2470 ng·h/mL

---

Target: Beta-3 adrenergic receptor (Homo sapiens)
Assay: Agonistic efficacy at human beta 3 adrenergic receptor as percent adenylyl cyclase activation relative to isoproterenol
Type: functional
Sequence (P13945 whole entry, looked up): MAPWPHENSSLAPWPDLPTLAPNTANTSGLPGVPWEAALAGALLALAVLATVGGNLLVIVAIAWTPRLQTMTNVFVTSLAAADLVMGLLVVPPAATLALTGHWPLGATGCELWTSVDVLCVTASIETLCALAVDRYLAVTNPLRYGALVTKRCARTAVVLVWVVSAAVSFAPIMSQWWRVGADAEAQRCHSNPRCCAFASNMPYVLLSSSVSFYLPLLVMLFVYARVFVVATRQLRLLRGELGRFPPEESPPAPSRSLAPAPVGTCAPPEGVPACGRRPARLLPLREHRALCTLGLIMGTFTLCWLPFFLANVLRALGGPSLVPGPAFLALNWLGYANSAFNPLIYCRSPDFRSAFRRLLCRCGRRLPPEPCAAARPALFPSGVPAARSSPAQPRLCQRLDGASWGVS
readout label: ACT (%)
Form entry: value (%) — number only.

Solved entries:
Field: ACT (Beta-3 adrenergic receptor (Homo sapiens)). Entry: `O=S(=O)(Nc1ccc(CCNC[C@H](O)c2cccnc2)cc1)c1ccc(-c2nc(-c3ccc(OC(F)(F)F)cc3)cs2)cc1` 93

Field: ACT (Beta-3 adrenergic receptor (Homo sapiens)). Entry: `O=S(=O)(Nc1ccc(CCNC[C@H](O)c2cccnc2)cc1)c1ccc(-c2nc(-c3ccc(F)c(F)c3)cs2)cc1` 92

Field: ACT (Beta-3 adrenergic receptor (Homo sapiens)). Entry: `O=S(=O)(Nc1ccc(CCNC[C@H](O)c2cccnc2)cc1)c1ccc(-c2nc(-c3cccc(C(F)(F)F)c3)cs2)cc1` 100

More entries:
Field: ACT (Beta-3 adrenergic receptor (Homo sapiens)). Entry: `O=S(=O)(Nc1ccc(CCNC[C@H](O)c2cccnc2)cc1)c1ccc(-c2nc(-c3ccc(F)cc3F)cs2)cc1` 87

---

Test: Half life was measured in dog
Format: ADME, organism-based, Canis lupus familiaris
Conditions: in vivo
// reported half-life per item
Form entry: value (h) — number only.

Solved entries:
Which half-life is listed for `O=S(=O)(Nc1ccc(CCNC[C@H](O)c2cccnc2)cc1)c1ccc(-c2nc(-c3cc(F)c(F)c(F)c3)cs2)cc1` ? 8

Which half-life is listed for `O=S(=O)(Nc1ccc(CCNC[C@H](O)c2cccnc2)cc1)c1ccc(-c2nc(-c3ccc(OC(F)(F)F)cc3)cs2)cc1` ? 10.3

Which half-life is listed for `O=S(=O)(Nc1ccc(CCNC[C@H](O)c2cccnc2)cc1)c1ccc(-c2nc(-c3ccc(F)c(F)c3)cs2)cc1` ? 7.5

Now for another entry.
Which half-life is listed for `O=S(=O)(Nc1ccc(CCNC[C@H](O)c2cccnc2)cc1)c1ccc(-c2nc(-c3ccc(C(F)(F)F)cc3)cs2)cc1` ? 13.5

---

// reported AUC per item
Assay: Area under curve determined in dogs after oral administration of 10 mg/kg
Type: ADME, organism-based, Canis lupus familiaris
Parameters: dose 10 mg/kg, route oral
Settings: dog, in vivo
Form entry: value (ng·h/mL) — number only.

Which AUC is listed for `O=S(=O)(Nc1ccc(CCNC[C@H](O)c2cccnc2)cc1)c1ccc(-c2nc(-c3ccc(F)c(F)c3)cs2)cc1` ? 2070

Which AUC is listed for `O=S(=O)(Nc1ccc(CCNC[C@H](O)c2cccnc2)cc1)c1ccc(-c2nc(-c3ccc(C(F)(F)F)cc3)cs2)cc1` ? 2270

Which AUC is listed for `O=S(=O)(Nc1ccc(CCNC[C@H](O)c2cccnc2)cc1)c1ccc(-c2nc(-c3cc(F)c(F)c(F)c3)cs2)cc1` ? 2230

Now for another entry.
Which AUC is listed for `O=S(=O)(Nc1ccc(CCNC[C@H](O)c2cccnc2)cc1)c1ccc(-c2nc(-c3ccc(OC(F)(F)F)cc3)cs2)cc1` ? 6280

---

Target: UniProt:P07550
Sequence (P07550 whole entry): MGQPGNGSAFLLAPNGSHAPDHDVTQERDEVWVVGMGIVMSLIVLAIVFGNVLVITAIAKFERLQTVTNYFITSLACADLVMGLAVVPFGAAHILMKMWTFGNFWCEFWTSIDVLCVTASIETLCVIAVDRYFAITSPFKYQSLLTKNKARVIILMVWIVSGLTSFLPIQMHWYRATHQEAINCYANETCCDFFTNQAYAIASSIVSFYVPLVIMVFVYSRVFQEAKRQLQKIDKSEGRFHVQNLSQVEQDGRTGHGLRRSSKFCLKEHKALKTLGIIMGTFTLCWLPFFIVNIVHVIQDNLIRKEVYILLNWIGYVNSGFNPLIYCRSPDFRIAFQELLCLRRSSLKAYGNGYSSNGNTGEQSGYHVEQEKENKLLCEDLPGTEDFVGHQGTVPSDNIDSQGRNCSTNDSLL
Assay: In vitro functional efficacy in stimulating increase in cAMP in chinese hamster ovary (CHO) cells expressing the cloned human beta-2 receptor.
readout label: pEC50
pEC50 here: minus log base 10 of the concentration, concentration in moles per litre.

Which pEC50 is listed for `O=S(=O)(Nc1ccc(CCNC[C@H](O)c2cccnc2)cc1)c1ccc(-c2nc(-c3ccc(F)c(F)c3)cs2)cc1` ? 5.74

Which pEC50 is listed for `O=S(=O)(Nc1ccc(CCNC[C@H](O)c2cccnc2)cc1)c1ccc(-c2nc(-c3ccc(OC(F)(F)F)cc3)cs2)cc1` ? 5.85

More entries:
Which pEC50 is listed for `O=S(=O)(Nc1ccc(CCNC[C@H](O)c2cccnc2)cc1)c1ccc(-c2nc(-c3ccc(C(F)(F)F)cc3)cs2)cc1` ? 5.62

---

Target: Beta-3 adrenergic receptor (Homo sapiens)
Assay: In vitro functional efficacy as increased cAMP in chinese hamster ovary (CHO) cells expressing human beta-3 receptor
Assay type: cell-based
Sequence (P13945 whole entry): as the sequence (P13945 whole entry, looked up) above
# label = true if EC50 < 8 nM else false

Confirm or reject: EC50 of `O=S(=O)(Nc1ccc(CCNC[C@H](O)c2cccnc2)cc1)c1ccc(-c2nc(-c3ccc(F)cc3F)cs2)cc1` lies strictly below 8 nM false

Confirm or reject: EC50 of `O=S(=O)(Nc1ccc(CCNC[C@H](O)c2cccnc2)cc1)c1ccc(-c2nc(-c3ccc(OC(F)(F)F)cc3)cs2)cc1` lies strictly below 8 nM true

Confirm or reject: EC50 of `O=S(=O)(Nc1ccc(CCNC[C@H](O)c2cccnc2)cc1)c1ccc(-c2nc(-c3ccccc3C(F)(F)F)cs2)cc1` lies strictly below 8 nM false

Confirm or reject: EC50 of `O=S(=O)(Nc1ccc(CCNC[C@H](O)c2cccnc2)cc1)c1ccc(-c2nc(-c3cc(F)c(F)c(F)c3)cs2)cc1` lies strictly below 8 nM true

Confirm or reject: EC50 of `O=S(=O)(Nc1ccc(CCNC[C@H](O)c2cccnc2)cc1)c1ccc(-c2nc(-c3cccc(C(F)(F)F)c3)cs2)cc1` lies strictly below 8 nM true

Confirm or reject: EC50 of `O=S(=O)(Nc1ccc(CCNC[C@H](O)c2cccnc2)cc1)c1ccc(-c2nc(-c3cccc(F)c3F)cs2)cc1` lies strictly below 8 nM true

More entries:
Confirm or reject: EC50 of `O=S(=O)(Nc1ccc(CCNC[C@H](O)c2cccnc2)cc1)c1ccc(-c2nc(-c3ccc(F)c(F)c3)cs2)cc1` lies strictly below 8 nM true

---

Target: Beta-1 adrenergic receptor (Homo sapiens, UniProt P08588)
Sequence (P08588 whole entry, looked up): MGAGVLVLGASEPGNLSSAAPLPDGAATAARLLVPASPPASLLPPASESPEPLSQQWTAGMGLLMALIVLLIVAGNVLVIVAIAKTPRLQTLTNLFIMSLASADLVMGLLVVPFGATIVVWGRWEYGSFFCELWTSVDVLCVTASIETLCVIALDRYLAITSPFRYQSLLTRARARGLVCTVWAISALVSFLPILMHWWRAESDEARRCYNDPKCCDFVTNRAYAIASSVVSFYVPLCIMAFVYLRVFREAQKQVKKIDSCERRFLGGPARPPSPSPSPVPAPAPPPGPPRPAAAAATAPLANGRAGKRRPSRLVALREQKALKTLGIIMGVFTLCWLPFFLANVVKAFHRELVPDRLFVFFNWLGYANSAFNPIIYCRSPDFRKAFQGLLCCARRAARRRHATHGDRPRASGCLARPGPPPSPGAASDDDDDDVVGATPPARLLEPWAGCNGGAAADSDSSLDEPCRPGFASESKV
Experiment: Agonistic efficacy at human beta 1 adrenergic receptor was assessed from adenylyl cyclase activation given as % of the maximum stimulation with isoproterenol at 10 uM
Assay type: functional
readout label: ACT (%)
Form entry: value (%) — number only.

Which ACT is listed for `O=S(=O)(Nc1ccc(CCNC[C@H](O)c2cccnc2)cc1)c1ccc(-c2nc(-c3ccc(F)cc3F)cs2)cc1` ? 7

Which ACT is listed for `O=S(=O)(Nc1ccc(CCNC[C@H](O)c2cccnc2)cc1)c1ccc(-c2nc(-c3ccc(C(F)(F)F)cc3)cs2)cc1` ? 24

Which ACT is listed for `O=S(=O)(Nc1ccc(CCNC[C@H](O)c2cccnc2)cc1)c1ccc(-c2nc(-c3cccc(C(F)(F)F)c3)cs2)cc1` ? 17

Which ACT is listed for `O=S(=O)(Nc1ccc(CCNC[C@H](O)c2cccnc2)cc1)c1ccc(-c2nc(-c3ccc(OC(F)(F)F)cc3)cs2)cc1` ? 24

Which ACT is listed for `O=S(=O)(Nc1ccc(CCNC[C@H](O)c2cccnc2)cc1)c1ccc(-c2nc(-c3cc(F)c(F)c(F)c3)cs2)cc1` ? 20

Which ACT is listed for `O=S(=O)(Nc1ccc(CCNC[C@H](O)c2cccnc2)cc1)c1ccc(-c2nc(-c3cccc(F)c3F)cs2)cc1` ? 6

---

// reported bioavailability per item
Assay: Oral bioavailability in dog
Assay type: ADME, organism-based, Canis lupus familiaris
Settings: in vivo

Solved entries:
Which bioavailability is listed for `O=S(=O)(Nc1ccc(CCNC[C@H](O)c2cccnc2)cc1)c1ccc(-c2nc(-c3ccc(OC(F)(F)F)cc3)cs2)cc1` ? 53%

Which bioavailability is listed for `O=S(=O)(Nc1ccc(CCNC[C@H](O)c2cccnc2)cc1)c1ccc(-c2nc(-c3ccc(C(F)(F)F)cc3)cs2)cc1` ? 38%

Which bioavailability is listed for `O=S(=O)(Nc1ccc(CCNC[C@H](O)c2cccnc2)cc1)c1ccc(-c2nc(-c3cc(F)c(F)c(F)c3)cs2)cc1` ? 27%

Now for another entry.
Which bioavailability is listed for `O=S(=O)(Nc1ccc(CCNC[C@H](O)c2cccnc2)cc1)c1ccc(-c2nc(-c3ccc(F)c(F)c3)cs2)cc1` ? 36%

---

Test: Oral bioavailability in rat (dose 10 mg/kg p.o. and 3 mg/kg i.v.)
Type: ADME, organism-based
Conditions: in vivo
readout label: bioavailability (%)
Form entry: value (%) — number only.

Which bioavailability is listed for `O=S(=O)(Nc1ccc(CCNC[C@H](O)c2cccnc2)cc1)c1ccc(-c2nc(-c3ccc(C(F)(F)F)cc3)cs2)cc1` ? 17

Which bioavailability is listed for `O=S(=O)(Nc1ccc(CCNC[C@H](O)c2cccnc2)cc1)c1ccc(-c2nc(-c3ccc(OC(F)(F)F)cc3)cs2)cc1` ? 7
